# protocolSummary: Hepatocyte stability assay (human)
# Assay type: in vitro ADME
# experimentalSetup: cryopreserved hepatocytes, 10 μM compound, 0.5×10^6 cells/mL, 60 minutes, read-out: T½
Below: a set of entries, each annotated with reported half-life at 10 μM.
Don't forget the unit after the value.

Please review the following examples before continuing.
- smilesStr: "C=C(CC(=O)O[C@@H](C)CCCCCC)C(=O)OCCC(=O)O"
  half-life at 10 μM: "16 min"
- smilesStr: "C=C(CC(=O)OC(C)(C)CCCCCC)C(=O)OCC(=O)O"
  half-life at 10 μM: "54 min"
- smilesStr: "C=C(CC(=O)O[C@H](C)CCCCCC)C(=O)OCCC(=O)O"
  half-life at 10 μM: "13 min"
- smilesStr: "C=C(CC(=O)OC1CCCCC1)C(=O)OCc1nnn[nH]1"
  half-life at 10 μM: "198 min"
- smilesStr: "C=C(CC(=O)OC1C(C)(C)CC1(C)C)C(=O)OCC(=O)O"
  half-life at 10 μM: "268 min"
- smilesStr: "C=C(CC(=O)OCCCOc1ccccc1)C(=O)OCCC(=O)O"
  half-life at 10 μM: "31 min"

Lookup: Consider the compound shown here: "C=C(CC(=O)OC1CC2(CCC2)C1)C(=O)OCC(=O)O" What is its recorded half-life at 10 μM?
Found: 126 min

Lookup: Cool, now "C=C(CC(=O)OCCCCCCCC)C(=O)OCC(=O)O"
Found: 13 min

Lookup: Cool, now "C=C(CC(=O)O[C@@H](C)CCCCCC)C(=O)OCC(=O)O"
Found: 49 min

Lookup: Cool, now "C=C(CC(=O)OC(C)(C)CCCCC)C(=O)OCC(=O)O"
Found: 109 min
